# credit: ChEMBL document CHEMBL1201862

# target-entity: Ataxin-2 (Homo sapiens) (UniProt Q99700)
# Sequence (Q99700 whole entry): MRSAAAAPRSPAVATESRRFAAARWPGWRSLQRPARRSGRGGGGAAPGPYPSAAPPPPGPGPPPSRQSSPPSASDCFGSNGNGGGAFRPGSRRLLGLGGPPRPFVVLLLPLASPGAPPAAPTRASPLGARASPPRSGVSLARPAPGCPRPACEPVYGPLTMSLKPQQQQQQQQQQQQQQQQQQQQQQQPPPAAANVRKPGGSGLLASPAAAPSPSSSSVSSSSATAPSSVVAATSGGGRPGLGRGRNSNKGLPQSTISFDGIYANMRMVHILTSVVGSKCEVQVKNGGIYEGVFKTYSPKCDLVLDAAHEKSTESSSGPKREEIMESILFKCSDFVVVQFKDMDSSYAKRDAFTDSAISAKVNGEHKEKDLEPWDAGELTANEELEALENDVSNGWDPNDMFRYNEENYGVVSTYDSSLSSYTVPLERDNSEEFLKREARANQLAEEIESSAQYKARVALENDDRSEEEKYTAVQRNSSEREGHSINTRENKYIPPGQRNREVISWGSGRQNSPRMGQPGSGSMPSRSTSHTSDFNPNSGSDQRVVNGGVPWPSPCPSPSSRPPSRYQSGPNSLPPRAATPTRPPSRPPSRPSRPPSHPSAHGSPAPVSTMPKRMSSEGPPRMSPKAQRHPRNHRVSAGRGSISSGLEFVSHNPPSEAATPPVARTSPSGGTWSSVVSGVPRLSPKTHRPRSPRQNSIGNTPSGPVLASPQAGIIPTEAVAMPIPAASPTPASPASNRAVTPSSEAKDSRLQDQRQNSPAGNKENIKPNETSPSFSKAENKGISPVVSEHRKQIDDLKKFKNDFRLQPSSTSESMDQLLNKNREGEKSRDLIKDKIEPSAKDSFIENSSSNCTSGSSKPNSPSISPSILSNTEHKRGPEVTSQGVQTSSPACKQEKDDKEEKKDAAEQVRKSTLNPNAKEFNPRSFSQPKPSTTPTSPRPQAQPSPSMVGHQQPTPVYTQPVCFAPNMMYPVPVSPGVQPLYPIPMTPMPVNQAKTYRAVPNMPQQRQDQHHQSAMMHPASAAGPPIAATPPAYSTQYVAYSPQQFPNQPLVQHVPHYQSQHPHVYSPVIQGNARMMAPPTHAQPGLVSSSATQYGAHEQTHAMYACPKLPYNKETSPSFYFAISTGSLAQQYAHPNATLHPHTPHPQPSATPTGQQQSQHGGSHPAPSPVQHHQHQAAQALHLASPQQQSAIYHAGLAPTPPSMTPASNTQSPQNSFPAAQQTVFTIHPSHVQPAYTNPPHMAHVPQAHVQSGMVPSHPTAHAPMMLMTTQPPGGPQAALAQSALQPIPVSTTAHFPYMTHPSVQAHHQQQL
# protocol-summary: qHTS for Inhibitors of ATXN expression.
# Format: functional
The campaign covered roughly 400,000 compounds. About 2,100 (0.53%) were called active. About 14% were inconclusive and are not listed. The rule behind the calls is not given here. This is one part of a sample in which actives are shown more often than they occur.
Outcomes: active, inactive

{"molecule": "CC(=O)Oc1ccc2c(c1)Oc1cc(OC(C)=O)ccc1C21OC(=O)c2ccccc21", "assigned-category": "inactive"}
{"molecule": "CCOC(=O)C1=C(COc2ccccc2)NC(=O)NC1c1ccc2ccccc2c1 (stereo not given)", "assigned-category": "active"}
{"molecule": "Cc1cc(O)c(C(C)C)cc1C1(c2cc(C(C)C)c(O)cc2C)OC(=O)c2ccccc21", "assigned-category": "active"}
{"molecule": "CCOC(=O)C1=C(COC(=O)COc2cccc(C)c2C)NC(=O)NC1C (stereo not given)", "assigned-category": "inactive"}
{"molecule": "O=C1OC(c2ccc3ccccc3c2O)(c2ccc3ccccc3c2O)c2ccccc21", "assigned-category": "active"}
